Data provenance: the supplement of paper PMC10567573

B1: GLT8D2 (parent)
chain: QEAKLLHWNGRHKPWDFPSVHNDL

- Variants of: B1
- Procedure details: protein stability index of a GFP-peptide fusion (GPS, HEK-293T) (PSI 1-6); higher = more stable;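 also: lentivirally expressed fusions sorted by FACS into six bins by GFP to DsRed ratio, PSI derived from sequencing read proportions per bin multiplied by bin number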
- Condition summary: c terminus: a fixed tail appended
Observable: protein stability index
Just the number, please, no unit after it.

Field: example entries. Status: answers known.
{"columns": ["Mutation string", "Test result"],
 "data": [
  ["H21R", 3],
  ["W15H", 3.17],
  ["H12M", 2.6],
  ["Q1A", 2.68],
  ["R11E", 3.58]
]}

Retrieve protein stability index measured for H7Y and print it. 1.85

Retrieve protein stability index measured for N22Q and print it. 2.79

Retrieve protein stability index measured for Q1G and print it. 2.65

Retrieve protein stability index measured for L5G and print it. 3.26

Retrieve protein stability index measured for W8I and print it. 2.9

Retrieve protein stability index measured for A3C and print it. 2.23

Retrieve protein stability index measured for G10M and print it. 2.53
